System: HT-29 cells
Experiment: Inhibition of cell proliferation (MTS), HT-29 cells
Assay type: cell-based
Conditions: Homo sapiens, HT-29, 72 h, HT-29 cells, 5000 cells/well, 72 h, MTS, absorbance 490 nm; read-out: HT29 IC50
measurement_name: IC50 (nM)

Past entries and their recorded results:
C=CCn1nc(-c2cccc(NS(=O)(=O)CC)c2)c2c(c(Nc3ccc(I)cc3F)c(F)c(=O)n2C)c1=O [Example 32]    12.7
CC(C)C(=O)Nc1cccc(-c2nn(C(C)C)c(=O)c3c(Nc4ccc(I)cc4F)c(F)c(=O)n(C)c23)c1 [Example 11]    180
CC(=O)Nc1cccc(-c2nn(CC(O)CO)c(=O)c3c(Nc4ccc(I)cc4F)c(F)c(=O)n(C)c23)c1 (stereo not drawn) [Example 40]    1.9

1: Cn1c(=O)c(F)c(Nc2ccc(I)cc2F)c2c(=O)n(C3CC3)nc(-c3cccc(NC(=O)C4CC4)c3)c21 [Example 4]
2: CC(C)S(=O)(=O)N(C)c1cccc(-c2nn(C3CC3)c(=O)c3c(Nc4ccc(I)cc4F)c(F)c(=O)n(C)c23)c1 [Example 48]
3: C=CCn1nc(-c2cccc(NC(=O)C(C)C)c2)c2c(c(Nc3ccc(I)cc3F)c(F)c(=O)n2C)c1=O [Example 35]
4: CC(C)S(=O)(=O)Nc1cccc(-c2nn(C3CC3)c(=O)c3c(Nc4ccc(I)cc4F)c(F)c(=O)n(C)c23)c1 [Example 7]
5: C=CCn1nc(-c2cccc(NS(C)(=O)=O)c2)c2c(c(Nc3ccc(I)cc3F)c(F)c(=O)n2C)c1=O [Example 31]
Input: Put the items in sequence by IC50, from largest down. Answer format: the labels, in the requested order.
Output: 1, 3, 2, 5, 4
(1: 41.9 nM, 3: 22.6 nM, 2: 13.2 nM, 5: 7.4 nM, 4: 4.1 nM)

a: CC(=O)Nc1cccc(-c2nn(C(C)C)c(=O)c3c(Nc4ccc(I)cc4F)c(F)c(=O)n(C)c23)c1 [Example 9]
b: CN(c1cccc(-c2nn(C)c(=O)c3c(Nc4ccc(I)cc4F)c(F)c(=O)n(C)c23)c1)S(C)(=O)=O [Example 50]
c: CN(c1cccc(-c2nn(C3CC3)c(=O)c3c(Nc4ccc(I)cc4F)c(F)c(=O)n(C)c23)c1)S(C)(=O)=O [Example 47]
Input: Put the items in sequence by IC50, from largest down. Answer format: the labels, in the requested order.
Output: a, c, b
